Cited source for all entries: patent US20210388087A1

Biological target: T1, cyno CD137 (cynomolgus monkey, UniProt Q07011 24-186 (human entry), limits assumed)
T1 construct: also called cynomolgus monkey CD137
T1 chain: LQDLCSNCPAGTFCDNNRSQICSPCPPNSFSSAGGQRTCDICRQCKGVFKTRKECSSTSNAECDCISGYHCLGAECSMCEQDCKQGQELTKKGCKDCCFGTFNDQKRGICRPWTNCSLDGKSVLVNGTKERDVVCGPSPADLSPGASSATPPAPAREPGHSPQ
Experiment: SPR Biacore T200, IgG captured on protein A, 25 C;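 note: antigens diluted in ACES running buffer at pH 7.4 were flowed over antibodies held on a CM3 chip bearing amine-coupled protein A, with buffer alone serving as blank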

- BINDER: "dBBDu183/L067 (antibody, V domains shown, IgG format; constant regions not specified) VH: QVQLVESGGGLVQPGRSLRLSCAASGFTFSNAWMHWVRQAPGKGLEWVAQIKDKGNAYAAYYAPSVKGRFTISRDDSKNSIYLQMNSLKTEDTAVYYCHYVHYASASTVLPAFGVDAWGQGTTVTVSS VL: DIVMTQSPLSLPVTPGEPASISCQSSESLVHVNRHTYLHWYQQKPGQAPRLLIYKVYNRFPGVPDRFSGSGSGTDFTLKISRVEAEDVGVYYCAQGTSVPFTFGQGTKLEIK"
  UNITS SYMBOL: "s⁻¹"
  koff: 0.00813
- BINDER: "dBBDu167/L091 (antibody, V domains shown, IgG format; constant regions not specified) VH: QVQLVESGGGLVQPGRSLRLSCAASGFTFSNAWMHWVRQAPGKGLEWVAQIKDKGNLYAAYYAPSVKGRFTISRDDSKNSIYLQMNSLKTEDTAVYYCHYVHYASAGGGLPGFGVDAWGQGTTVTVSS VL: DIVMTQSPLSLPVTPGEPASISCSASESLLHNNRHTYLHWYQQKPGQAPRLLIYRVSNRFNGVPDRFSGSGSGTDFTLKISRVEAEDVGVYYCGQGTQVPFTFGQGTKLEIK"
  UNITS SYMBOL: "s⁻¹"
  koff: 0.0101
